The values you see were collected from patent EP0138995B1.

assay: Stability (decay) of quinoid-6,6-Me2PH2 monitored spectrophotometrically; format: physicochemical; details: 0.1 m tris-hcl, air, pH 7.4, pH 7.4 (0.1 M Tris·HCl), 27°C, air; read-out: t 1/2 (converted)
quantity: half-life (h)
Expressed in h, but write only the number.

Prompt: Name the reported half-life value associated with the molecule `CC1(C)CNC2=NC(N)=NC(=O)C2=N1`
Completion: 4

---

test: Spectrophotometric pKa determination of quinoid dihydropterin; assay type: physicochemical; settings: sodium succinate buffer; transition between neutral and monocationic species; sodium succinate buffers, I=0.01, 25°C
quantity: pKa
Give the figure only, with no unit attached.

Prompt: Name the reported pKa value associated with the compound `CC1(C)CNC2=NC(N)=NC(=O)C2=N1`
Completion: 5.15

---

assay: Stability (decay) of quinoid-6,6-Me2PH2 monitored spectrophotometrically; type: physicochemical; conditions: 0.1 m tris-hcl, argon, pH 7.4, pH 7.4 (0.1 M Tris·HCl), 37°C, argon; read-out: t 1/2 (converted)
quantity: half-life (h)
Expressed in h, but write only the number.

Prompt: Name the reported half-life value associated with the molecule `CC1(C)CNC2=NC(N)=NC(=O)C2=N1`
Completion: 1.25

---

assay: Stability (decay) of quinoid-6,6-Me2PH2 monitored spectrophotometrically; assay type: physicochemical; details: 1n hcl, argon, pH 0, pH 0 (1N HCl), 37°C, argon; read-out: t 1/2 (converted)
quantity: half-life

Prompt: Name the reported half-life value associated with the compound `CC1(C)CNC2=NC(N)=NC(=O)C2=N1`
Completion: 45 min

---

target: phenylalanine hydroxylase (Rattus norvegicus)
Sequence (P04176 whole entry): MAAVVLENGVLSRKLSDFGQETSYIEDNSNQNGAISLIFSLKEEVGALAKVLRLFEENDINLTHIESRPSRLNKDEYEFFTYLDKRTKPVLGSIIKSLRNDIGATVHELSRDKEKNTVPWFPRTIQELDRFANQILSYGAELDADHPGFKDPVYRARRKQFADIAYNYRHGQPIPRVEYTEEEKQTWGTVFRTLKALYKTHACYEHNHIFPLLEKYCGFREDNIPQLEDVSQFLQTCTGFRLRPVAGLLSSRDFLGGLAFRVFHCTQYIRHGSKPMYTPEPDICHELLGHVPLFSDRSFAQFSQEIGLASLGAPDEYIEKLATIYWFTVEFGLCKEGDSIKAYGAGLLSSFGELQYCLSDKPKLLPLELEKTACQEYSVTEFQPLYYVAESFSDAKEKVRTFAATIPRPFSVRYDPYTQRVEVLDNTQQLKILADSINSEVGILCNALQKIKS
quantity: pKi
Value format note: pKi is -log10 of concentration (mol/L); just state the number.

Prompt: Hi! What's the reported pKi for C[C@H](O)[C@H](O)C1=Nc2c(nc(N)[nH]c2=O)NC1 [7,8-dihydrobiopterin, reference compound] on phenylalanine hydroxylase (Rattus norvegicus)?
Completion: 4.30

---

assay: Stability (decay) of quinoid-6,6-Me2PH2 monitored spectrophotometrically; assay type: physicochemical; conditions: dmso, aerated (CH3)2SO at ambient temperature; read-out: half-life (converted)
quantity: half-life

Prompt: Name the reported half-life value associated with the compound `CC1(C)CNC2=NC(N)=NC(=O)C2=N1`
Completion: ~48 h

---

assay: Stability (decay) of quinoid-6,6-Me2PH2 monitored spectrophotometrically; format: physicochemical; conditions: tris-mes 0.1 m, air, pH 6.8, pH 6.8 (Tris-MES 0.1M), 0°C (on ice), air; read-out: t 1/2 (converted)
quantity: half-life

Prompt: Name the reported half-life value associated with the molecule `CC1(C)CNC2=NC(N)=NC(=O)C2=N1`
Completion: > 100 h
